The reported numbers originate from patent US20220089776A1.

Target: T1, human blood protein factor XII (FXII) (human, UniProt P00748 20-615)
T1 construct: mature; Single-chain zymogen as it circulates in plasma; also called human FXII; plasma-derived FXII
T1 sequence (looked up): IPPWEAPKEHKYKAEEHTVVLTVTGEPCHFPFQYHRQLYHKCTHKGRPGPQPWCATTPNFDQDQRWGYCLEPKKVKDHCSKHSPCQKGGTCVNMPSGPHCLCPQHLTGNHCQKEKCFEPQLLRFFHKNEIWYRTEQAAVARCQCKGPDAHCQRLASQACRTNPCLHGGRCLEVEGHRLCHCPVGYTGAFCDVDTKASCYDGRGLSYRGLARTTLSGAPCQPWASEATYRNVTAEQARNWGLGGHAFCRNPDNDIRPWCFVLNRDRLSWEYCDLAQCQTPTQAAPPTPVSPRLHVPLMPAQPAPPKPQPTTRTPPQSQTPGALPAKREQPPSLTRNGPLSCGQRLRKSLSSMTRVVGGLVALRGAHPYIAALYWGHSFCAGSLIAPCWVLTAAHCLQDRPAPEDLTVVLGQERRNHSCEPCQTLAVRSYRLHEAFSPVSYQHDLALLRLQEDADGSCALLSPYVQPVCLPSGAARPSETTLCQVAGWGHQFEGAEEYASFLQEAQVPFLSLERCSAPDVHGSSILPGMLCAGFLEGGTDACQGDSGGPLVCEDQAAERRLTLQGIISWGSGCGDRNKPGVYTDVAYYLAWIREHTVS
Test: ELISA, human FXII coated at 1 µg/mL, goat anti-human IgG-HRP detection

[
  {
    "binder": "humanized 5C12 antibody HC3 + LC1 (PP13899) (antibody, human IgG4 S228P, kappa, V domains shown, Human IgG4 (S241P hinge modified), expressed in HEK293; also called H7882 + L7880) VH: DVQLQESGPGLVKPSETLSLTCTVSGYSITSGYSWHWIRQPPGKGLEWIGYIQYSGNTNSNPSLKSRVTISRDTSKNQFSLRLSSVTAADTAVYYCARWGSFDYWGQGTMVTVSS VL: EIVLTQSPATLSLSPGERATLSCRASSSVNYLHWYQQKPGQAPRRLIYDTSKLATGIPARFSGSGSGTDYTLTISSLEPEDFAVYYCQQWSGNPPTFGGGTKVEIKR",
    "EC50 [ng/mL]": 8.48
  },
  {
    "binder": "humanized 5C12 antibody HC2 + LC1 (PP13896) (antibody, human IgG4 S228P, kappa, V domains shown, Human IgG4 (S241P hinge modified), expressed in HEK293; also called H7881 + L7880) VH: DVQLQESGPGLVKPSQTLSLTCTVTGYSITSGYSWHWIRQHPGKGLEWMGYIQYSGNTNSNPSLKSRVTISRDTSKNQFSLKLSSVTAADTAVYYCARWGSFDYWGQGTLVTVSS VL: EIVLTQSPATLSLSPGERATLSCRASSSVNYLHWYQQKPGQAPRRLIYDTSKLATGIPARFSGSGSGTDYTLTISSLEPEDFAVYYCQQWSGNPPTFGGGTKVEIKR",
    "EC50 [ng/mL]": 8.24
  },
  {
    "binder": "humanized 5C12 antibody HC3 + LC3 (PP13901) (antibody, human IgG4 S228P, kappa, V domains shown, Human IgG4 (S241P hinge modified), expressed in HEK293; also called H7882 + L7882) VH: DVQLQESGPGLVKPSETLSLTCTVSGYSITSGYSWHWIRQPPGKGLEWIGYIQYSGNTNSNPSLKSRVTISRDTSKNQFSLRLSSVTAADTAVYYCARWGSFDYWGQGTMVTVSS VL: DIVLTQTPATLSLSPGERATLSCRASSSVNYLHWYQQKPGQAPKRLIYDTSKLATGIPARFSGSGSGTDYTLTISSLEPEDFAVYYCQQWSGNPPTFGQGTRLEIKR",
    "EC50 [ng/mL]": 9.47
  },
  {
    "binder": "Chimera (chimeric parental antibody) PP13892 (antibody, human IgG4, V domains shown, Variable regions of murine AB053 on the same human IgG4 (S241P hinge modified) backbone as the humanized antibodies; also called H7879 + L7879) VH: DVQLQESGPDLVKPSQSLSLTCTVTGYSITSGYSWHWIRQFPGNNLEWMGYIQYSGNTNSNPSLKSRISITRDTSKNQFFLHLNSVTTEDTATYYCARWGSFDYWGQGTTLTVSS VL: QIVLTQSPAIMSASPGEKVTMTCSASSSVNYMHWYQQKSGTSPKRWIYDTSKLASGVPARFSGSGSGTSYSLTISSMEAGDAATYYCQQWSGNPPTFGGGTILEIK",
    "EC50 [ng/mL]": 9.04
  },
  {
    "binder": "humanized 5C12 antibody HC3 + LC2 (PP13900) (antibody, human IgG4 S228P, kappa, V domains shown, Human IgG4 (S241P hinge modified), expressed in HEK293; also called H7882 + L7881) VH: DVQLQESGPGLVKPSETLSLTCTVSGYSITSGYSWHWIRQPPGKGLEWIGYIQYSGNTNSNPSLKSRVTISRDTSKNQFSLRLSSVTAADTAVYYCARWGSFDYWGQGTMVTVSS VL: EIVLTQSPATLSLSPGERATLSCRASSSVNYLHWYQQKPGQAPKRWIYDTSKLATGIPARFSGSGSGTDYTLTISSLEPEDFAVYYCQQWSGNPPTFGGGTKVEIKR",
    "EC50 [ng/mL]": 7.69
  }
]
